- assay.explanation: molar heat capacity at constant pressure
- measurement.setup: 358.2 K; 101.33 kPa; Liquid; Small sample (50 mg) DSC
reported.property: molar heat capacity at constant pressure (J/K/mol)
All answers are understood in J/K/mol, so give the number only.

Example cases with answers are listed next.
[[record]]
compound = "CCn1cc[n+](C)c1.N#CN=C=[N-] [1-ethyl-3-methylimidazolium dicyanamide]"
unit_annotation = "J/K/mol"
result_value = 354.24

[[record]]
compound = "CCn1cc[n+](C)c1.O=S(=O)([O-])C(F)(F)F [1-ethyl-3-methylimidazolium trifluoromethanesulfonate]"
unit_annotation = "J/K/mol"
result_value = 401.8

[[record]]
compound = "CCn1cc[n+](C)c1.COCCOCCOS(=O)(=O)[O-] [1-ethyl-3-methylimidazolium 2-(2-methoxyethoxy) ethylsulfate]"
unit_annotation = "J/K/mol"
result_value = 544.08

[[record]]
compound = "CCn1cc[n+](C)c1.F[B-](F)(F)F [1-ethyl-3-methylimidazolium tetrafluoroborate]"
unit_annotation = "J/K/mol"
result_value = 323.48


Let's switch to this compound now.
QUERY: Could you share which molar heat capacity at constant pressure value was measured for CCOS(=O)(=O)[O-].CCn1cc[n+](C)c1 [1-ethyl-3-methylimidazolium ethyl sulfate] ?
RESULT: 463.6

###

- assay.explanation: molar heat capacity at constant pressure
- measurement.setup: 323.2 K; 101.33 kPa; Liquid; Small sample (50 mg) DSC
Consider the following molecules and their measured molar heat capacity at constant pressure readings.
All answers are understood in J/K/mol, so give the number only.

Example cases with answers are listed next.
[[record]]
molecule = "CCn1cc[n+](C)c1.O=S(=O)([O-])C(F)(F)F [1-ethyl-3-methylimidazolium trifluoromethanesulfonate]"
reported_property = "molar heat capacity at constant pressure"
unit_annotation = "J/K/mol"
result_value = 387.49

[[record]]
molecule = "CCn1cc[n+](C)c1.COCCOCCOS(=O)(=O)[O-] [1-ethyl-3-methylimidazolium 2-(2-methoxyethoxy) ethylsulfate]"
reported_property = "molar heat capacity at constant pressure"
unit_annotation = "J/K/mol"
result_value = 532.59

[[record]]
molecule = "CCOS(=O)(=O)[O-].CCn1cc[n+](C)c1 [1-ethyl-3-methylimidazolium ethyl sulfate]"
reported_property = "molar heat capacity at constant pressure"
unit_annotation = "J/K/mol"
result_value = 441.39

[[record]]
molecule = "CCn1cc[n+](C)c1.N#CN=C=[N-] [1-ethyl-3-methylimidazolium dicyanamide]"
reported_property = "molar heat capacity at constant pressure"
unit_annotation = "J/K/mol"
result_value = 338.64


Let's switch to this molecule now.
QUERY: Could you share which molar heat capacity at constant pressure value was measured for CCn1cc[n+](C)c1.F[B-](F)(F)F [1-ethyl-3-methylimidazolium tetrafluoroborate] ?
RESULT: 314.38

###

- assay.explanation: molar heat capacity at constant pressure
- measurement.setup: 338.2 K; 101.33 kPa; Liquid; Small sample (50 mg) DSC
Threshold 400 J/K/mol: molar heat capacity at constant pressure strictly smaller gives condition met, otherwise condition not met.

[[record]]
compound = "CCn1cc[n+](C)c1.COCCOCCOS(=O)(=O)[O-] [1-ethyl-3-methylimidazolium 2-(2-methoxyethoxy) ethylsulfate]"
assigned_label = "condition not met"

[[record]]
compound = "CCn1cc[n+](C)c1.F[B-](F)(F)F [1-ethyl-3-methylimidazolium tetrafluoroborate]"
assigned_label = "condition met"

[[record]]
compound = "CCn1cc[n+](C)c1.N#CN=C=[N-] [1-ethyl-3-methylimidazolium dicyanamide]"
assigned_label = "condition met"


Now examine the next entry.
QUERY: Given the entry CCOS(=O)(=O)[O-].CCn1cc[n+](C)c1 [1-ethyl-3-methylimidazolium ethyl sulfate] , would its reported molar heat capacity at constant pressure be below 400 J/K/mol?
RESULT: condition not met

Values from the NIST ThermoML archive (doi:10.1016/j.jct.2008.07.013)
